B1: RHOBTB2 (parent)
chain: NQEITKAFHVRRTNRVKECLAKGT

variants of: B1; test: protein stability index of a GFP-peptide fusion (GPS, HEK-293T) (PSI 1-6); higher = more stable; conditions: c terminus: a fixed tail appended;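 further: lentivirally expressed fusions sorted by FACS into six bins by GFP to DsRed ratio, PSI derived from sequencing read proportions per bin multiplied by bin number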
Think of 3 as a floor: if protein stability index stands on it or above, it is rule met; beneath it, rule not met.

>  <sequenceVariant>
G23T

>  <label>
rule not met

$$$$
>  <sequenceVariant>
A7N

>  <label>
rule met

$$$$
>  <sequenceVariant>
T13S

>  <label>
rule met

$$$$
>  <sequenceVariant>
K22L

>  <label>
rule not met

$$$$
>  <sequenceVariant>
I4G

>  <label>
rule met

$$$$
>  <sequenceVariant>
N1E

>  <label>
rule met

$$$$
>  <sequenceVariant>
C19R

>  <label>
rule not met

$$$$
>  <sequenceVariant>
G23F

>  <label>
rule not met

$$$$
>  <sequenceVariant>
R11W

>  <label>
rule not met

$$$$
>  <sequenceVariant>
V10C

>  <label>
rule met

$$$$
>  <sequenceVariant>
V16E

>  <label>
rule met

$$$$
>  <sequenceVariant>
E18I

>  <label>
rule not met

$$$$
>  <sequenceVariant>
R12A

>  <label>
rule met

$$$$
>  <sequenceVariant>
F8V

>  <label>
rule met

$$$$
>  <sequenceVariant>
R11P

>  <label>
rule met

$$$$
>  <sequenceVariant>
H9Y

>  <label>
rule met

$$$$
>  <sequenceVariant>
E18M

>  <label>
rule not met

$$$$
>  <sequenceVariant>
E18R

>  <label>
rule not met

$$$$
>  <sequenceVariant>
I4N

>  <label>
rule met

$$$$
>  <sequenceVariant>
C19N

>  <label>
rule met

$$$$
>  <sequenceVariant>
H9R

>  <label>
rule not met

$$$$
>  <sequenceVariant>
L20M

>  <label>
rule met

$$$$
>  <sequenceVariant>
V10P

>  <label>
rule met

$$$$
>  <sequenceVariant>
R11E

>  <label>
rule met

$$$$
>  <sequenceVariant>
V10Y

>  <label>
rule met

$$$$
>  <sequenceVariant>
Q2Y

>  <label>
rule met

$$$$
>  <sequenceVariant>
A21T

>  <label>
rule met

$$$$
